Values were extracted from PubChem BioAssay AID248.

System: L1210 leukemia ip in BDF1 mice, survival T/C
test-protocol: NCI In Vivo Anticancer Drug Screen. Data for tumor model L1210 Leukemia (intraperitoneal) in B6D2F1 (BDF1) mice
settings: endpoint: mean survival time; dose: 400.0 mg/kg/injection; schedule: Q01DX009 (ip); vehicle: saline with Tween-80; higher = longer survival
Toxic doses and inconclusive results are not listed.
Quick reference for T/C among some compounds

O=C(Nc1ccc2c(c1)Cc1cc(Br)ccc1-2)C(F)(F)F
94 % of control
c1ccc(P2CCc3[nH]c4ccccc4c3C2)cc1 (stereo unspecified)
100 % of control
COC1OC(COC(=O)c2ccccc2)C(OC(=O)c2ccccc2)C(OC(=O)c2ccccc2)C1OC(=O)c1ccccc1 (stereo unspecified)
107 % of control
O=C(O)C1=CC2C3C=CC(C(=O)O)(C3)C2C1 (stereo unspecified)
94 % of control
CCCCCCCCC(C(O)c1ccccc1)C(O)(C(F)(F)F)C(F)(F)F (stereo unspecified)
97 % of control

Exam item: Determine from records and report T/C for COc1ccccc1SC(=O)N(C)C
Marked response: 93 % of control

====

System: L1210 leukemia ip in BDF1 mice, survival T/C
test-protocol: NCI In Vivo Anticancer Drug Screen. Data for tumor model L1210 Leukemia (intraperitoneal) in B6D2F1 (BDF1) mice
settings: endpoint: mean survival time; dose: 10.0 mg/kg/injection; schedule: Q01DX001 (ip); vehicle: saline; higher = longer survival
Toxic doses and inconclusive results are not listed.
value-type: T/C

NC(=O)c1cccs1
98 % of control
CSc1cc(=O)n2c3ccccc3c3ccnc1c32
98 % of control
c1ccc(C2(c3ccccc3)CC([P+](c3ccccc3)(c3ccccc3)c3ccccc3)N=N2)cc1 (stereo not drawn)
103 % of control
CCO/N=C(/C)C(C)SC#N (stereo not drawn)
97 % of control
Cc1c(CCO)sc[n+]1Cc1ccccc1[N+](=O)[O-]
100 % of control
CCN(CC)CC(O)COc1ccccc1C (stereo not drawn)
101 % of control
CCC[N+](CCC)(CCC)Cc1ccccc1
98 % of control

Okay, next one:
Exam item: Determine from records and report T/C for NC1CCc2ccccc2-c2ccccc21 (stereo not drawn)
Marked response: 101 % of control

====

Test system: L1210 leukemia ip in BDF1 mice, survival T/C
test-protocol: NCI In Vivo Anticancer Drug Screen. Data for tumor model L1210 Leukemia (intraperitoneal) in B6D2F1 (BDF1) mice
settings: endpoint: mean survival time; dose: 200.0 mg/kg/injection; schedule: Q01DX001 (ip); vehicle: saline; higher = longer survival
Inconclusive results and toxic doses are left out.
Quick reference for T/C among some compounds

Consider the reported T/C for these compounds:
CNS(=O)(=O)c1ccccc1C(=N)c1ccccc1
97 % of control
C[N+]1(Cc2ccccc2)CCC(=O)CC1
103 % of control
O=C(CCCC(=O)N/N=C/c1ccc2c(c1)OCO2)N/N=C\c1ccc2c(c1)OCO2
106 % of control
c1nc(NCC2CC2)c2[nH]cnc2n1
97 % of control

Exam item: Determine from records and report T/C for COc1ccc(CN2CCCN(Cc3ccc(OC)cc3OC)C2c2cccc(OC)c2O)c(OC)c1
Marked response: 92 % of control

Exam item: Determine from records and report T/C for CC(=O)NCCCOc1ccc(N)cc1
Marked response: 102 % of control

====

Test system: L1210 leukemia ip in BDF1 mice, survival T/C
test-protocol: NCI In Vivo Anticancer Drug Screen. Data for tumor model L1210 Leukemia (intraperitoneal) in B6D2F1 (BDF1) mice
settings: endpoint: mean survival time; dose: 100.0 mg/kg/injection; schedule: Q01DX001 (ip); vehicle: carboxymethylcellulose (CMC); higher = longer survival
Inconclusive results and toxic doses are left out.
value-type: T/C

Consider the reported T/C for these compounds:
O=C(c1ccccc1)c1ccc(Br)cc1O
105 % of control
COC(=O)c1ccc(O)c(Cl)c1
96 % of control
O=C(O)c1cc(N=Nc2ccc(S(=O)(=O)Nc3nccs3)cc2)ccc1O
95 % of control

Exam item: Determine from records and report T/C for Nc1ccc([N+](=O)[O-])c2ccccc12
Marked response: 93 % of control

Exam item: Determine from records and report T/C for O=C1NCC/C1=C\c1cc2c(cc1[N+](=O)[O-])OCO2
Marked response: 90 % of control

Exam item: Determine from records and report T/C for CCS(=O)(=O)CCOC(=O)c1ccc([N+](=O)[O-])cc1
Marked response: 100 % of control

====

Quick reference for T/C among some compounds
Tested on: L1210 leukemia ip in BDF1 mice, survival T/C
test-protocol: NCI In Vivo Anticancer Drug Screen. Data for tumor model L1210 Leukemia (intraperitoneal) in B6D2F1 (BDF1) mice
settings: endpoint: mean survival time; dose: 200.0 mg/kg/injection; schedule: Q04DX003 (ip); vehicle: water; higher = longer survival
Toxic doses and inconclusive results are not listed.

COC(=O)CCC(=O)NCC(=O)OCc1ccccc1
96 % of control
[O-][n+]1ccccc1Br
115 % of control
CCOc1nc(SCC)ncc1C
95 % of control

Okay, next one:
Exam item: Determine from records and report T/C for CC[N+](CC)(CC)CCC[N+](CC)(CC)CC
Marked response: 99 % of control

====

Tested on: L1210 leukemia ip in BDF1 mice, survival T/C
test-protocol: NCI In Vivo Anticancer Drug Screen. Data for tumor model L1210 Leukemia (intraperitoneal) in B6D2F1 (BDF1) mice
settings: endpoint: mean survival time; dose: 200.0 mg/kg/injection; schedule: Q01DX001 (ip); vehicle: saline; higher = longer survival
Toxic doses and inconclusive results are not listed.
value-type: T/C

Consider the reported T/C for these compounds:
CC(C)(C#CC(C)(C)OC(=O)Nc1ccccc1)OC(=O)Nc1ccccc1
95 % of control
Cc1ccc(O)c[n+]1[O-]
97 % of control
Cc1cc(=O)n2c(n1)Nc1ccccc1C2
93 % of control
CC(=O)Nc1ccc(OC(C)=O)cc1[N+](=O)[O-]
102 % of control

Exam item: Determine from records and report T/C for Cc1ccc2[nH]c(O)c(N=Nc3ccccc3[N+](=O)[O-])c2c1
Marked response: 93 % of control

Exam item: Determine from records and report T/C for COc1cc(/C=C/[N+](=O)[O-])c([N+](=O)[O-])cc1OC
Marked response: 101 % of control

====

Quick reference for T/C among some compounds
Test system: L1210 leukemia ip in BDF1 mice, survival T/C
test-protocol: NCI In Vivo Anticancer Drug Screen. Data for tumor model L1210 Leukemia (intraperitoneal) in B6D2F1 (BDF1) mice
settings: endpoint: mean survival time; dose: 100.0 mg/kg/injection; schedule: Q04DX002 (ip); vehicle: Klucel (hydroxypropylcellulose) (HPC); higher = longer survival
Toxic doses and inconclusive results are not listed.

Consider the reported T/C for these compounds:
O=C(Nc1ccc(NC(=O)c2ccccc2)c2c1C(=O)c1ccccc1C2=O)c1ccccc1
100 % of control
CC(C)CCOC(=O)C(O)C(C)(Cl)c1ccccc1 (stereo not given)
111 % of control
Cc1ccc(C(=O)n2c(Cl)c(/C=N/NC(N)=S)c3ccccc32)cc1
95 % of control
O=C1c2ccccc2S(=O)N1OCc1ccccc1 (stereo not given)
88 % of control

Okay, next one:
Exam item: Determine from records and report T/C for CCN(CC)C(=S)Oc1c(C(C)(C)C)cc([N+](=O)[O-])c(C)c1[N+](=O)[O-]
Marked response: 90 % of control

====

Quick reference for T/C among some compounds
Tested on: L1210 leukemia ip in BDF1 mice, survival T/C
test-protocol: NCI In Vivo Anticancer Drug Screen. Data for tumor model L1210 Leukemia (intraperitoneal) in B6D2F1 (BDF1) mice
settings: endpoint: mean survival time; dose: 25.0 mg/kg/injection; schedule: Q04DX002 (ip); vehicle: saline with Tween-80; higher = longer survival
Inconclusive results and toxic doses are left out.

Consider the reported T/C for these compounds:
S=c1nccc[nH]1
93 % of control
CC(C)CC(CC(C)C)C(=O)C1C2CCC(O2)C1C(=O)C(CC(C)C)CC(C)C (centres undefined)
86 % of control
O=C(NC1CCCCC1)Oc1c(Cl)cc(Cl)c(Cl)c1[N+](=O)[O-]
92 % of control

Exam item: Determine from records and report T/C for N#C[CH2][Sn]([I])([c]1ccccc1)[c]1ccccc1
Marked response: 107 % of control

====

Quick reference for T/C among some molecules
Tested on: L1210 leukemia ip in BDF1 mice, survival T/C
test-protocol: NCI In Vivo Anticancer Drug Screen. Data for tumor model L1210 Leukemia (intraperitoneal) in B6D2F1 (BDF1) mice
settings: endpoint: mean survival time; dose: 50.0 mg/kg/injection; schedule: Q04DX002 (ip); vehicle: Klucel (hydroxypropylcellulose) (HPC); higher = longer survival
Toxic doses and inconclusive results are not listed.

Consider the reported T/C for these molecules:
Cc1ccc(C(=O)n2c(Cl)c(/C=N/NC(N)=S)c3ccccc32)cc1
87 % of control
NC1(c2ccccc2)CC1
93 % of control
COc1nncc(-c2cnnc(OC)n2)n1
109 % of control
CCN(CC)CCOCCOC(=O)C(CC)(CC)c1cccc2ccccc12
97 % of control
CCOC(=O)COc1ccccc1Cl
97 % of control

Exam item: Determine from records and report T/C for COc1cc2c(cc1OC)-c1cc3cc(OC)c(OC)cc3c(C)[n+]1CC2
Marked response: 105 % of control

Exam item: Determine from records and report T/C for CC(Cl)CN1Cc2ccccc2CCc2ccccc2C1 (stereo not given)
Marked response: 92 % of control
